In what follows, each item is paired with its AC50 for Adenosine receptor A3 (Homo sapiens, UniProt P0DMS8).
assay-readout: AC50

>>> experimental_result("COc1ccccc1OCC(O)COC(N)=O (stereo not drawn) [METHOCARBAMOL]")
"> 10 µM"
>>> experimental_result("N[C@@H](C(=O)N[C@@H]1C(=O)N2C(C(=O)O)=C(Cl)CS[C@H]12)c1ccccc1 [CEFACLOR ANHYDROUS]")
"24 µM"
>>> experimental_result("COc1cc2c(cc1OC)C(=O)C(CC1CCN(Cc3ccccc3)CC1)C2 (stereo not drawn) [DONEPEZIL]")
"> 30 µM"
>>> experimental_result("CCCCC(C)(O)C/C=C/[C@H]1[C@H](O)CC(=O)[C@@H]1CCCCCCC(=O)OC (stereo partly drawn) [MISOPROSTOL]")
"> 30 µM"
>>> experimental_result("C[C@H]1C[C@@H]2[C@H]([C@@H](O)C[C@@]3(C)[C@H]2CC[C@]3(O)C(=O)COC(=O)CCC(=O)O)[C@@]2(C)C=CC(=O)C=C12 [METHYLPREDNISOLONE HEMISUCCINATE]")
"> 30 µM"
>>> experimental_result("CC1=CC(=O)c2ccccc2C1=O [MENADIONE]")
"13.7 µM"
>>> experimental_result("CCCCCOC(=O)Nc1nc(=O)n([C@@H]2O[C@H](C)[C@@H](O)[C@H]2O)cc1F [CAPECITABINE]")
"> 30 µM"
>>> experimental_result("CCCS(=O)(=O)Nc1ccc(F)c(C(=O)c2c[nH]c3ncc(-c4ccc(Cl)cc4)cc23)c1F [VEMURAFENIB]")
"18 µM"
>>> experimental_result("CC(=O)N[C@H]1[C@H]([C@H](O)[C@H](O)CO)OC(C(=O)O)=C[C@@H]1N=C(N)N [ZANAMIVIR]")
"> 30 µM"
>>> experimental_result("Nc1nc2ccc(OC(F)(F)F)cc2s1 [RILUZOLE]")
"> 30 µM"
>>> experimental_result("CC(=O)N(CC(O)CO)c1c(I)c(C(=O)NCC(O)CO)c(I)c(C(=O)NCC(O)CO)c1I (stereo not drawn) [IOHEXOL]")
"> 30 µM"
>>> experimental_result("O=C1NCCN1CCN1CCC(c2cn(-c3ccc(F)cc3)c3ccc(Cl)cc23)CC1 [SERTINDOLE]")
"16 µM"
>>> experimental_result("CN1C(=O)CC(C)(c2ccccc2)C1=O (stereo not drawn) [METHSUXIMIDE]")
"> 10 µM"
>>> experimental_result("CCN(CC)CCOC(=O)c1ccc(N)cc1 [PROCAINE]")
"> 30 µM"
>>> experimental_result("CN(CCCN1c2ccccc2CCc2ccccc21)CC(=O)c1ccc(Cl)cc1 [LOFEPRAMINE]")
"18 µM"
>>> experimental_result("Cc1c(O)c(=O)ccn1C [DEFERIPRONE]")
"> 30 µM"
>>> experimental_result("C[C@@H]1O[C@@H]1P(=O)(O)O [FOSFOMYCIN]")
"> 10 µM"
>>> experimental_result("CC(C)NCC1CCc2cc(CO)c([N+](=O)[O-])cc2N1 (stereo not drawn) [OXAMNIQUINE]")
"> 10 µM"
